tested on: HT29 colon; test: NCI-60 one-dose screen, 48 h; settings: 10 µM
Compounds without any hit were thinned out: in the full panel of roughly 83,000, 20% have a hit. Calls of active or inactive are those of the source. Rule for the calls: active = growth percent below 10; inactive = the rest.
Log the outcome using a class from T (active), F (inactive)

The following compounds have reported results that may help.
1) Nc1ccccc1NC(=O)CCCCC(=O)Nc1ccc2c(c1)/C(=C/c1ccc[nH]1)C(=O)N2    F
2) O=C1/C(=C\c2ccc(F)cc2)CN(C(=O)c2ccc([N+](=O)[O-])cc2)C/C1=C\c1ccc(F)cc1    T
3) COc1ccc(N2C(=O)C3c4[nH]c5ccc(OCc6ccccc6)cc5c4C4CCC(C(C)C)CC4C3C2=O)cc1 (centres undefined)    F

So what was the verdict on CCN1Cc2c(/C=C/c3ccccc3)nc3ccc(OC)cc3c2N(c2cccc(Cl)c2)C1 in this test? F

---

test system: SNB-19 CNS; assay: NCI-60 one-dose screen, 48 h (100 = growth as untreated, 0 = no growth, -100 = all killed); details: 10 µM
Compounds without any hit were thinned out: in the full panel of roughly 83,000, 20% have a hit.
The following compounds are listed with their measured growth values.
The figure you give is taken to be in %; do not add the unit.

These recorded examples may help you get a feel for the data.
1) Cc1ccc(-c2n[nH]c(=O)c3noc(-c4ccc(C)cc4)c23)cc1    56
2) CC12O[C@H](C[C@@H](O)[C@H]1O)n1c3ccccc3c3c4c(c5c6ccccc6n2c5c31)C(=O)N(CCCN)C4=O    26.9
3) COc1ccc(-c2nn(-c3cccc(NC(=O)Nc4cccc(C(F)(F)F)c4)c3)cc2-c2ccncc2)cc1Cl    37.1
4) FC(F)(F)c1ccc2nc(-c3nc(-c4ccccc4)n4ccccc34)[nH]c2c1    116
5) COc1cc(-c2cc(/C=C/C(=O)c3ccc4c(c3)OCO4)[nH]n2)cc(OC)c1OC    66.5
6) Nc1ccc2c(c1)C1(CCC2)NC(=O)NC1=O (centres undefined)    96.6

Fill in the recorded growth for this compound, with SNB-19 CNS as test system: COc1ccc(/C=C2/CN(C(=O)c3ccccc3F)C/C(=C\c3ccc(OC)cc3)C2=O)cc1 77

What do we get for O=C(Nc1ccc(Cl)c(Cl)c1)Nc1c(Oc2ccc(Cl)c(Cl)c2)ccc(Cl)c1S(=O)(=O)O ? 48.3

What about COc1ccc(OC)c(/C=C/c2nc(SC)n(-c3ccc(Cl)cc3)n2)c1 ? 81.4

---

Each record here notes measured growth.
tested on: HCT-15 colon; test: NCI-60 one-dose screen, 48 h (100 = growth as untreated, 0 = no growth, -100 = all killed); conditions: 10 µM
About 83,000 compounds went through this panel and 20% of them were active in at least one assay; those are over-represented in the sample as a whole.
Number only, in %; omit the unit.

1) N#Cc1c(C#N)c(SSc2c(C#N)c(C#N)c(N)n2-c2ccccc2)n(-c2ccccc2)c1N    102
2) COc1ccc2c(c1)sc1nc(-c3ccccc3)c(-c3ccsc3)n12    30.5
3) S=c1[nH]ccn1-c1c(Cl)cccc1Cl    100
4) CC(=O)c1nc2ccccc2n1CCNC(N)=O    103
5) CCOC(=O)CNC(=O)CCCCSc1ncnc2nc[nH]c12    101

Fill blank: measured growth of the molecule CC/C(C)=C(\C)C(=O)O is ____. 107
